# Test system: RARg:RXRa (NR concentration 270 nM, RXRa partner concentration 90 nM)
# ASSAY_INFO: PBM binding z-score (relative to random genomic background probes); higher = stronger binding; sequences stand for … in GC…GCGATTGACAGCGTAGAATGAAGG
Listed here are sequences together with their documented PBM binding z-score.
Reply with just the number.

Name the recorded PBM binding z-score for CGAACTAGGTCACCAGGACAGGGAAGAGGTTGGA .
4.35

Another sequence to check: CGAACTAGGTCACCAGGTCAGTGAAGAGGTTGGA
5.69

Another sequence to check: CAAACTAGGTCACGAAAGGTCAACGTCGAATGAC
8.06

Another sequence to check: CGTCCAAGGTCAAAGGTCAGTAAAGAGATGACGG
8.65

Another sequence to check: CCGAGTAGGTTACAAGGGGGCATTCAGTGCGAAT
2.84

New cases:
Name the recorded PBM binding z-score for CCTAGTTGGTCAGGAGGTCCCACACCGGATATGA .
0.48

Another sequence to check: CCTACTGGGCGATTCAGAGGTCATTGATCATATG
3.12

###

# System: FXR:RXRa (NR concentration 270 nM, RXRa partner concentration 90 nM)
# ASSAY_INFO: PBM binding z-score (relative to random genomic background probes); higher = stronger binding; sequences stand for … in GC…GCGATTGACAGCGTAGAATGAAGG
Listed here are sequences together with their documented PBM binding z-score.
Reply with just the number.

Completed entries (count: 5):
Name the recorded PBM binding z-score for AGAATGAGGTTAGCAAAGATCAGGGAAACGCTTG .
0.688

Another sequence to check: GGAACGGGGGCATTCGAGTTGATAGCATGGCGAT
3.01

Another sequence to check: CCTTACGGGTCACGGTTATAGCACGGGTGGTACG
5.96

Another sequence to check: CCTTACGGGTAACTCCAGGTTATAGCATCGGAGT
0.565

Another sequence to check: GATACAGGGTCAGCTAGAGGTCAGAGTATGGAAA
6

New cases:
Name the recorded PBM binding z-score for CGAACTAGGACATCCAGGACAGTGAATACATTGA .
0.00191

Another sequence to check: CAAACTAGGTCAAGGGGTCAAAGTCCGCTTCCCG
7.14

###

# Tested on: PPARg:RXRa 30nM:10nM, anti-RXR (NR concentration 30 nM, RXRa partner concentration 10 nM)
# ASSAY_INFO: PBM binding z-score (relative to random genomic background probes); higher = stronger binding; sequences stand for … in GC…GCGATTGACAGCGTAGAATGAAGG
ASSAY_METRIC: PBM binding z-score

Completed entries (count: 10):
Name the recorded PBM binding z-score for CTATGTAGGTTAAGGGGGTGATTCAGTTTGAAAG .
4.44

Another sequence to check: CGAACTAGGTCACAAGGACAGTGAAGAGGTTGGA
4.93

Another sequence to check: CCGACTGGGGCAAAGGTCACCATACTCAGTACGA
12.4

Another sequence to check: TCGAGTAGGTTACGGGGGCATTCGGGGATGAAGA
3.14

Another sequence to check: GCTTACGGGTCAAAGGTTACAGCATGAATAGAAT
10

Another sequence to check: TCTCGGAGGACACGAAGGTCAAAGCTTTCCAGAG
2.73

Another sequence to check: CCTTACAGGTCACGAGGTTATAGCACGACGAGCG
3.71

Another sequence to check: AATACAGGGTCATTAGGCCAGAGTAGGTACGAAT
2.62

Another sequence to check: CAAACTAGGTCACAGGGGTCAAAGTCCGTGCGTA
7.69

Another sequence to check: ACTAGTTGGTCAGCTGAGGTCACACAAAATTCGG
0.399

New cases:
Name the recorded PBM binding z-score for CCCCGGAGGACAGAAGGTCAGAGCTGTCCGCTTT .
-0.911

Another sequence to check: TAGCCTAGGTCATAGGGCCAGTATAGTACGCATC
1.43

Another sequence to check: CATACAGGGACAGCTAGGCCAGAGTAGGGACGGC
-0.277

Another sequence to check: CGAACTAGGTCACCAGGCCAGTGAAGAGGTTGGA
4.02

###

# System: RARg homodimer (NR concentration 270 nM)
# ASSAY_INFO: PBM binding z-score (relative to random genomic background probes); higher = stronger binding; sequences stand for … in GC…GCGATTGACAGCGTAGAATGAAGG
Listed here are sequences together with their documented PBM binding z-score.
Reply with just the number.

Name the recorded PBM binding z-score for CCGAGTAGGTTACGAGGGGGCATGCAGTGCGAAT .
2.67

Another sequence to check: AGAATGAGGTTAACAAAGATCAGGGAAACGCTTG
1.73

Another sequence to check: ATATGTCGGTTAGGGTCATTCAGAAAGTAGGGAA
3.09

Another sequence to check: CCTACTGGGCCATTCAGAGGTCACTGATCATATG
3.57

Another sequence to check: TCGAGTAGCTTACGGGGGCATTCAGGGATGAAGA
0.544

New cases:
Name the recorded PBM binding z-score for CAAACTAGGTCACCGTAAGGTCAAAGTCCGCATG .
7.64

###

# Tested on: FXR:RXRa (NR concentration 270 nM, RXRa partner concentration 90 nM)
# ASSAY_INFO: PBM binding z-score (relative to random genomic background probes); higher = stronger binding; sequences stand for … in GC…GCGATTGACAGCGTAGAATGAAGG
Heads up, the class ranges for PBM binding z-score are LOW (below 4), MID (4 to below 5), HIGH (5 or more)

A selection of reference data follows.
Entry CCGAGTAGGTTACGAGGGGGCATTCACTGCGAAT belongs to which category?
LOW

Another sequence to check: TGTCAGAGTTCAAAGGTAACGTAAGTATCCACAC
HIGH

Another sequence to check: AGTCAAAGTTCATCTAGGTAACGAAAGATATGCT
HIGH

Another sequence to check: CCTTACGGGTCAAGGTTATCGCACGGGTGGTACG
HIGH

Another sequence to check: CGAACTATGTCAAGGACAGTGAATCTCCGCACGC
LOW

New cases:
Entry CTATGTACGTTAAGGGGGTCATTCAGTTTGAAAG belongs to which category?
MID

Another sequence to check: ATCGAAAGGTCGACGAGTTGAGTATACACCGTTT
LOW

Another sequence to check: CGAACTAGGTCACCAGGACAATGAAGAGGTTGGA
LOW

Another sequence to check: AGTAAAAGTTCACTAGGTAACGTAAGATTCAGCT
MID

Another sequence to check: CTATGTAGGTTAAGGGGGTCATTCCGTTTGAAAG
MID

Another sequence to check: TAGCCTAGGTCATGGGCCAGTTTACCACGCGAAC
MID

###

Listed here are sequences together with their documented PBM binding z-score.
# Test system: THRa:RXRa (NR concentration 90 nM, RXRa partner concentration 90 nM)
# ASSAY_INFO: PBM binding z-score (relative to random genomic background probes); higher = stronger binding; sequences stand for … in GC…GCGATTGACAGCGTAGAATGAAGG

Completed entries (count: 5):
Name the recorded PBM binding z-score for CCGAGTAGGTTACGAGGGGGCACTCAGTGCGAAT .
3.74

Another sequence to check: CTATGTAGGTTAAGGGGGTCATTCGGTTTGAAAG
3.79

Another sequence to check: CGAACTAAGTCATTGACAGGACAGTGAATAGTAA
0.19

Another sequence to check: GGTACGAGGGCAAAGTTGATAGCATCTGTCGACG
1.33

Another sequence to check: TGGCCTAGGTCATGCGGGCCAGTATAGTGTCGGC
2.68

Now for another entry.
Name the recorded PBM binding z-score for CGAACTAGGTCATAGGACAGTGAAAGGCGACGTA .
2.64

###

# Test system: PPARg:RXRa IVT, anti-PPARg (NR concentration 270 nM, RXRa partner concentration 90 nM)
# ASSAY_INFO: PBM binding z-score (relative to random genomic background probes); higher = stronger binding; sequences stand for … in GC…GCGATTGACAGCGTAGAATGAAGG
Listed here are sequences together with their documented PBM binding z-score.

// map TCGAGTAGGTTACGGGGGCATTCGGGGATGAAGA to recorded PBM binding z-score (system: PPARg:RXRa IVT, anti-PPARg (NR concentration 270 nM, RXRa partner concentration 90 nM))
5.85

Another sequence to check: AGATTGAGGTTACCAAAGATCAGGGAAACGCTTG
2.54

Another sequence to check: CCGAGTAGGTTACGAGAGGGCATTCAGTGCGAAT
3.37

Another sequence to check: ATATGAAGGTTATCGGGTCATTCAGTTTGCGCAT
4.42

Another sequence to check: CCTGCTAGGTCAAGGGTCAGCTAAAGCAGCTCGC
5.78

Another sequence to check: TCGAGTAGGTTACGGGGGCATTCAGGGATGAAGA
5.99

Another sequence to check: TCATATAGGTAATCAGGTGAAAGTCCGTAAGTTA
5.17

Another sequence to check: ATATGTAGGTTAGGGTTATTCAGAAAGTAGGGAA
6.54

Another sequence to check: CGAACTAGATCACCAGGACAGTGAAGAGGTTGGA
1.58

Another sequence to check: ACTAGCAGGTCAAGGGTCACTCAAGATTAGTCCG
6.12

Another sequence to check: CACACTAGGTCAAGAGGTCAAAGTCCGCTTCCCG
7.67

Another sequence to check: GGAACGAGCGCAAAGTTGATAGCATCTGTCGACG
-0.495

Another sequence to check: CCCACTGGGGCAAAGGTTACCATACTCAGTACGA
7.1

Another sequence to check: CCGAGTAGGTTACGAGGGGGCATCCAGTGCGAAT
4.45

Another sequence to check: CCTACAGGGCCAAAGGTCATTGATTCCAATGCTC
4.29
